# System: XF498
# assay-protocol: Cytotoxicity against human XF498 cells
# Assay type: functional, cell-based
readout: EC50 (µg/mL)
Answers are plain numbers, in µg/mL.

molecule	readout-unit	EC50
CN(C)C(=N)N.CN(C)C(=N)N.O=C(NCCSSCCNC(=O)/C(Cc1ccc(OS(=O)(=O)O)c(Br)c1)=N/O)/C(Cc1ccc(OS(=O)(=O)O)c(Br)c1)=N/O [PSAMMAPLIN A SULFATE DIGUANIDIUM SALT]	µg/mL	16.9
COc1cccc2c1C(=O)c1c(O)c3c(c(O)c1C2=O)C[C@@](O)(C(=O)CO)C[C@@H]3O[C@H]1C[C@H](N)[C@H](O)[C@H](C)O1	µg/mL	0.03
O=C1NCCSSCCNC(=O)/C(=N/O)Cc2ccc(c(Br)c2)Oc2cc(cc(Br)c2O)C/C(=N\O)C(=O)NCCSSCCNC(=O)/C(=N/O)Cc2cc(Br)c(O)c(c2)Oc2ccc(cc2Br)C/C1=N\O	µg/mL	2.88

Respectfully, I request EC50 for each entry included below.
1. NC(=O)C(=O)NCCSSCCNC(=O)/C(Cc1ccc(O)c(Br)c1)=N/O
2. N#CSCCNC(=O)/C(Cc1ccc(O)c(Br)c1)=N/O
3. CS(=O)(=O)CCNC(=O)/C(Cc1ccc(O)c(Br)c1)=N/O

1.63
10.9
2.96

What value of EC50 has been reported for the following molecule? O=C(NCCSSCCNC(=O)/C(Cc1ccc(O)c(Br)c1)=N/O)/C(Cc1ccc(OS(=O)(=O)[O-])c(Br)c1)=N\O.[Na+] [PSAMMAPLIN A SULFATE SODIUM SALT] 0.18

====

Kindly state log10 of EC50 for each of the entries shown.
# Test system: A549
# assay-protocol: Cytotoxicity against human A549 cells
# Type: functional, cell-based
Values below are the log10 of the recorded EC50, with µg/mL as the unit.

compound	value-reported
O=C1NCCSSCCNC(=O)/C(=N/O)Cc2ccc(c(Br)c2)Oc2cc(cc(Br)c2O)C/C(=N\O)C(=O)NCCSSCCNC(=O)/C(=N/O)Cc2cc(Br)c(O)c(c2)Oc2ccc(cc2Br)C/C1=N\O	0.29
NC(=O)C(=O)NCCSSCCNC(=O)/C(Cc1ccc(O)c(Br)c1)=N/O	0.17
CN(C)C(=N)N.CN(C)C(=N)N.O=C(NCCSSCCNC(=O)/C(Cc1ccc(OS(=O)(=O)O)c(Br)c1)=N/O)/C(Cc1ccc(OS(=O)(=O)O)c(Br)c1)=N/O [PSAMMAPLIN A SULFATE DIGUANIDIUM SALT]	1.09
COc1cccc2c1C(=O)c1c(O)c3c(c(O)c1C2=O)C[C@@](O)(C(=O)CO)C[C@@H]3O[C@H]1C[C@H](N)[C@H](O)[C@H](C)O1	-2.00
O=C(NCCSSCCNC(=O)/C(Cc1ccc(O)c(Br)c1)=N/O)/C(Cc1ccc(OS(=O)(=O)[O-])c(Br)c1)=N\O.[Na+] [PSAMMAPLIN A SULFATE SODIUM SALT]	-0.74

Respectfully, I request log10 of EC50 for each entry included below.
1. N#CSCCNC(=O)/C(Cc1ccc(O)c(Br)c1)=N/O
2. CS(=O)(=O)CCNC(=O)/C(Cc1ccc(O)c(Br)c1)=N/O

[1.11, 0.62]
